- TEST_SYSTEM: SD1-RBD of SARS-CoV-2 S (ancestral), aa 319-591 (SARS-CoV-2, ancestral (Wuhan-Hu-1; …, UniProt P0DTC2)
QUANTITY: binding result

{"columns": ["BINDER", "RESULT"],
 "data": [
  ["sd1.103 (antibody, V domains shown) VH: QVQLVQSGAEVKKPGSSMKVSCKASGGTLNNYAIIWVRQAPGQGLEWMGGIIPMFGAANYAQNFQGRVTITADESTRTAYLELSSLRSEDTAMYYCARVVIPYLGAHYYHYGVDVWGQGTTVTVSS VL: EIVLTQSPGTLSLSPGERATLSCRASQSVTSNYLAWYQQKPGQAPRLLIYGASSRAAGIPDRFNGSGSGTDFTLTISRLEPEDFAVYYCQQYGSSRYTFGQGTKLEIK", "binds"],
  ["sd1.132 (antibody, V domains shown) VH: QVQLVQSGTEVKKPGSSVKVSCKASGGTFSSYAISWVRQAPGQGLEWMGGIIPMFGAPNYAQKVQGRVTITADESTSTAYMELSSLRSEDTAVYYCARMEYSNSPGRGGYYFYSNGMDVWGQGTTVTVSS VL: EIVLTQSPATLSLSPGERATLSCRASQSVSTYLAWLQQKPGQAPRLLMYDASNRASGIPARFSGSGSGTEFTLTISSLEPEDFAVYYCQQRTYWPLTFGGGTKVEIK", "binds"],
  ["rbd.048 (antibody, V domains shown) VH: EVQLVESGGGLVQPGGSLRLSCAASGFTVSSNYMTWVRQAPGKGLEWVSVIYSGGSTFYTDSVKGRFTISRDNSKNTLYLQMNSLRAEDTAVYYCARDVVYYGMDVWGQGTTVTVSS VL: DIQMTQSPSSLSASVGDRVTITCRASQSISSYLNWYQQKPGKAPKLLIYAASSLQSGVPSRFSGSGSGTDFTLTISSLQPEDFATYYCQESYSNSPYTFGQGTKLEIK", "binds"]
]}
